Target: 5-HT2B receptor (Homo sapiens)
Construct: host or cells: CHO-K1
Sequence (P41595 whole entry): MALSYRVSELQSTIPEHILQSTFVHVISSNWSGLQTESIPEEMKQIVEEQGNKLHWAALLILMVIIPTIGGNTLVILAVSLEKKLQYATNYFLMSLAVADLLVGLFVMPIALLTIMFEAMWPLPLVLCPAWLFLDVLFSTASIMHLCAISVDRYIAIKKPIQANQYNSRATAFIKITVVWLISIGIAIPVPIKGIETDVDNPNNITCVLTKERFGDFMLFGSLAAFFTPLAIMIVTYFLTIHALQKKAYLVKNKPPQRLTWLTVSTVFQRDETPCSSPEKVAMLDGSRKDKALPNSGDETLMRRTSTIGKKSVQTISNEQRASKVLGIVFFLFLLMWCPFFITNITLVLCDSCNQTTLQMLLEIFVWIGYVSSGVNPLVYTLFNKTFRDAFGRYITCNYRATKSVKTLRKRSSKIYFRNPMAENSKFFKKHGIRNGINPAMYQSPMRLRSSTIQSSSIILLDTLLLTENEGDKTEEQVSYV
Assay: 5-HT2B activation in a similar assay at a single 10 μM concentration
Assay type: cell-based
For each entry below, report its 5-HT2B % Activation @ 10 μM value.
Answer with a number only, understood to be in %.

Bench note: what 5-HT2B % Activation @ 10 μM did COc1cccc(CNCCc2c[nH]c3ncc(C#N)cc23)c1 [Compound S75] show? 1

Bench note: what 5-HT2B % Activation @ 10 μM did C[C@@H]1CCN1CCc1c[nH]c2ncc(F)cc12 [Compound S49] show? 0

Bench note: what 5-HT2B % Activation @ 10 μM did Fc1cnc2[nH]cc(CCN3CCCC3)c2c1 [Compound S6] show? 16

Bench note: what 5-HT2B % Activation @ 10 μM did Fc1cnc2[nH]cc(CCN3CCCCC3)c2c1 [Compound S7] show? 0

Bench note: what 5-HT2B % Activation @ 10 μM did Fc1cnc2[nH]cc(CCN3CCC4CC43)c2c1 (stereo not shown) [Compound S25] show? 41

Bench note: what 5-HT2B % Activation @ 10 μM did COc1ccccc1CNCCc1c[nH]c2ncc(C#N)cc12 [Compound S74] show? 15

Bench note: what 5-HT2B % Activation @ 10 μM did CC(C)N(C)CCc1c[nH]c2ncc(Br)cc12 [Compound S55] show? 4

Bench note: what 5-HT2B % Activation @ 10 μM did COc1cnc2[nH]cc(CCN(C)C3CC3)c2c1 [Compound S44] show? 1

Bench note: what 5-HT2B % Activation @ 10 μM did COc1cnc2[nH]cc(CCN3CCCCC3)c2c1 [Compound S47] show? 0

Bench note: what 5-HT2B % Activation @ 10 μM did CC(C)N(C)CCc1c[nH]c2ncc(Cl)cc12 [Compound S53] show? 26

====

Molecular target: 5-HT2B receptor (Homo sapiens)
Construct: host or cells: CHO-K1
Experiment: 5-HT2B activation in a similar assay at a single 10 μM concentration
Assay type: cell-based
Label criterion met when 5-HT2B % Activation @ 10 μM >= 1%; otherwise criterion not met.

Determine whether measured 5-HT2B % Activation @ 10 μM meets or exceeds 1% for N#Cc1cnc2[nH]cc(CCN3CCCC3)c2c1 [Compound S69] criterion not met

Determine whether measured 5-HT2B % Activation @ 10 μM meets or exceeds 1% for Fc1cnc2[nH]cc(CCNC3CC3)c2c1 [Compound S2] criterion met

Determine whether measured 5-HT2B % Activation @ 10 μM meets or exceeds 1% for Brc1cnc2[nH]cc(CCN3CCCC3)c2c1 [Compound S57] criterion met

Determine whether measured 5-HT2B % Activation @ 10 μM meets or exceeds 1% for N#Cc1cnc2[nH]cc(CCN3CCC3)c2c1 [Compound S70] criterion not met

Determine whether measured 5-HT2B % Activation @ 10 μM meets or exceeds 1% for CC(C)N(C)CCc1c[nH]c2ncc(C#N)cc12 [Compound S67] criterion met

Determine whether measured 5-HT2B % Activation @ 10 μM meets or exceeds 1% for C[C@H]1CCCN1CCc1c[nH]c2ncc(F)cc12 [Compound S51] criterion not met

Determine whether measured 5-HT2B % Activation @ 10 μM meets or exceeds 1% for Fc1cnc2[nH]cc(CCNCC3CC3)c2c1 [Compound S17] criterion met

Determine whether measured 5-HT2B % Activation @ 10 μM meets or exceeds 1% for CN(CCc1c[nH]c2ncc(Cl)cc12)C1CC1 [Compound S42] criterion met
